- Tested on: C. albicans ATCC 10231 biofilm formation
- Type: cell-based, Candida albicans
- Particulars: ATCC 10231, 24 h
Where a SMILES comes first, the peptide text is derived from it.
Recorded MBIC, C. albicans ATCC 10231 by entry

{"Compound": "CC[C@H](C)[C@H](NC(=O)[C@H](C)NC(=O)[C@H](CC(=O)O)NC(=O)[C@H](Cc1ccccc1)NC(=O)[C@H](CC(C)C)NC(=O)CN)C(=O)N[C@@H](CCCCN)C(=O)N[C@@H](CCCCN)C(=O)N[C@H](C(=O)N[C@@H](C)C(=O)N[C@@H](CCC(=O)O)C(=O)N[C@@H](CO)C(=O)N[C@@H](Cc1ccccc1)C(N)=O)[C@@H](C)CC [Peptide I5A] (H-GLFDAIKKIAESF-NH2)", "Assay System": "C. albicans ATCC 10231 biofilm formation", "MBIC, C. albicans ATCC 10231": "4 µg/mL"}
{"Compound": "CC[C@H](C)[C@H](NC(=O)[C@H](CCCCN)NC(=O)[C@H](CCCCN)NC(=O)[C@@H](NC(=O)[C@@H](NC(=O)[C@H](CC(=O)O)NC(=O)[C@H](Cc1ccccc1)NC(=O)[C@H](CC(C)C)NC(=O)CN)[C@@H](C)CC)[C@@H](C)CC)C(=O)N[C@@H](C)C(=O)N[C@@H](CCC(=O)O)C(=O)N[C@@H](C)C(=O)N[C@@H](Cc1ccccc1)C(N)=O [Peptide S12A] (H-GLFDIIKKIAEAF-NH2)", "Assay System": "C. albicans ATCC 10231 biofilm formation", "MBIC, C. albicans ATCC 10231": "2 µg/mL"}
{"Compound": "CC[C@H](C)[C@H](NC(=O)[C@H](C)NC(=O)[C@H](Cc1ccccc1)NC(=O)[C@H](CC(C)C)NC(=O)CN)C(=O)N[C@H](C(=O)N[C@@H](CCCCN)C(=O)N[C@@H](CCCCN)C(=O)N[C@H](C(=O)N[C@@H](C)C(=O)N[C@@H](CCC(=O)O)C(=O)N[C@@H](CO)C(=O)N[C@@H](Cc1ccccc1)C(N)=O)[C@@H](C)CC)[C@@H](C)CC [Peptide D4A] (H-GLFAIIKKIAESF-NH2)", "Assay System": "C. albicans ATCC 10231 biofilm formation", "MBIC, C. albicans ATCC 10231": "2 µg/mL"}
{"Compound": "CC[C@H](C)[C@H](NC(=O)[C@H](CCCCN)NC(=O)[C@H](CCCCN)NC(=O)[C@@H](NC(=O)[C@@H](NC(=O)[C@H](CC(=O)O)NC(=O)[C@H](Cc1ccccc1)NC(=O)[C@H](CC(C)C)NC(=O)[C@H](C)N)[C@@H](C)CC)[C@@H](C)CC)C(=O)N[C@@H](C)C(=O)N[C@@H](CCC(=O)O)C(=O)N[C@@H](CO)C(=O)N[C@@H](Cc1ccccc1)C(N)=O [Peptide G1A] (H-ALFDIIKKIAESF-NH2)", "Assay System": "C. albicans ATCC 10231 biofilm formation", "MBIC, C. albicans ATCC 10231": "4 µg/mL"}
{"Compound": "CC[C@H](C)[C@H](NC(=O)[C@H](C)NC(=O)[C@H](CCCCN)NC(=O)[C@@H](NC(=O)[C@@H](NC(=O)[C@H](CC(=O)O)NC(=O)[C@H](Cc1ccccc1)NC(=O)[C@H](CC(C)C)NC(=O)CN)[C@@H](C)CC)[C@@H](C)CC)C(=O)N[C@@H](C)C(=O)N[C@@H](CCC(=O)O)C(=O)N[C@@H](CO)C(=O)N[C@@H](Cc1ccccc1)C(N)=O [Peptide K8A] (H-GLFDIIKAIAESF-NH2)", "Assay System": "C. albicans ATCC 10231 biofilm formation", "MBIC, C. albicans ATCC 10231": "4 µg/mL"}
